# tgt: human mGluR7 (Homo sapiens)
# experiment_notes: mGluR7 assay: CRE-directed luciferase reporter gene assay, reduction of forskolin stimulated cAMP production
# condition_parameters: stable CHO cell line expressing the CRE-luc reporter and human mGluR7 genes; decrease of forskolin stimulated luminescence; 10-point concentration-response, duplicate wells
# Protocol: The ability of the test compounds to activate mGluR7 was determined by their ability to reduce forskolin stimulated cAMP production. Compounds were assessed in a CRE-directed luciferase reporter gene assay, using a stable CHO cell line expressing the CRE-luc reporter and human mGluR7 genes. In this cell line, production of cAMP stimulated the transcription of the luciferase gene and luciferase activity was then measured in a luminescent enzyme assay (Steady Glo assay; Promega E2550). […]
pEC50: −log10 of the molar value.
// map pEC50 to label using low = under 7, intermediate = from 7 up to 8, high = 8 and over

Input: Band of CS(=O)(=O)[C@@H]1c2ccccc2C[C@H]1NC(=O)C(OCC1CC1)c1ccccc1 (relative stereo) ?
Output: high

Input: Band of CS(=O)(=O)C1c2ccccc2CC1NC(=O)C(OCC1CC1)c1ccccc1 (single isomer, unassigned) [Example 145] ?
Output: high

Input: Band of N[C@H]1c2ccccc2C[C@@H]1NC(=O)C(c1ccc(F)cc1F)n1ncccc1=O (single isomer, unassigned) [Example 109] ?
Output: low

Input: Band of COC1c2ccccc2C[C@@H]1NC(=O)[C@@H](NC(=O)C1CCOCC1)c1ccc(F)cc1 (stereo partly shown) ?
Output: high

Input: Band of COC1c2ccccc2CC1NC(=O)C(c1ccc(F)cc1F)n1ncccc1=O (single isomer, unassigned) [Example 125] ?
Output: low

* * *

# tgt: human mGluR7 (Homo sapiens)
# experiment_notes: mGluR7 assay: CRE-directed luciferase reporter gene assay, reduction of forskolin stimulated cAMP production
# condition_parameters: stable CHO cell line expressing the CRE-luc reporter and human mGluR7 genes; decrease of forskolin stimulated luminescence; 10-point concentration-response, duplicate wells
Listing of entries alongside the reported pEC50.
Expect pEC50 as a plain number equal to -log10 of the molar concentration.

Field: example entries. Status: answers known.
>  <molecule>
N[C@H]1c2ccccc2C[C@@H]1NC(=O)C1(c2ccccc2Cl)CC1

>  <tgt>
human mGluR7 (Homo sapiens)

>  <measured_result>
6.36

$$$$
>  <molecule>
COC1c2ccccc2CC1NC(=O)[C@@H](C)c1ccc(F)cc1 (single isomer, unassigned) [Example 38]

>  <tgt>
human mGluR7 (Homo sapiens)

>  <measured_result>
7.80

$$$$
>  <molecule>
CCOC1c2ccccc2CC1NC(=O)[C@@H](C)c1ccc(F)cc1 (single isomer, unassigned) [Example 32]

>  <tgt>
human mGluR7 (Homo sapiens)

>  <measured_result>
7.85

$$$$

Input: Lab note: record pEC50 of C[C@H](C(=O)NC1Cc2ccccc2C1O)c1ccccc1 (single isomer, unassigned) [Example 6] tested on human mGluR7 (Homo sapiens).
Output: 5.81

Input: Lab note: record pEC50 of Cc1nccn1C(C(=O)N[C@H]1Cc2ccccc2[C@@H]1NC(=O)OC(C)(C)C)c1ccc(F)cc1F (mixture of isomers) tested on human mGluR7 (Homo sapiens).
Output: 6.11

Input: Lab note: record pEC50 of N[C@H]1c2ccccc2C[C@@H]1NC(=O)C(c1ccc(F)cc1F)n1ccccc1=O (single isomer, unassigned) [Example 50] tested on human mGluR7 (Homo sapiens).
Output: 5.41

Input: Lab note: record pEC50 of CC(F)(C(=O)N[C@H]1Cc2ccccc2[C@@H]1N)c1ccc(F)cc1 (single isomer, unassigned) [Example 77] tested on human mGluR7 (Homo sapiens).
Output: 5.58

* * *

# tgt: human mGluR7 (Homo sapiens, UniProt Q14831)
# Sequence (Q14831 35-915): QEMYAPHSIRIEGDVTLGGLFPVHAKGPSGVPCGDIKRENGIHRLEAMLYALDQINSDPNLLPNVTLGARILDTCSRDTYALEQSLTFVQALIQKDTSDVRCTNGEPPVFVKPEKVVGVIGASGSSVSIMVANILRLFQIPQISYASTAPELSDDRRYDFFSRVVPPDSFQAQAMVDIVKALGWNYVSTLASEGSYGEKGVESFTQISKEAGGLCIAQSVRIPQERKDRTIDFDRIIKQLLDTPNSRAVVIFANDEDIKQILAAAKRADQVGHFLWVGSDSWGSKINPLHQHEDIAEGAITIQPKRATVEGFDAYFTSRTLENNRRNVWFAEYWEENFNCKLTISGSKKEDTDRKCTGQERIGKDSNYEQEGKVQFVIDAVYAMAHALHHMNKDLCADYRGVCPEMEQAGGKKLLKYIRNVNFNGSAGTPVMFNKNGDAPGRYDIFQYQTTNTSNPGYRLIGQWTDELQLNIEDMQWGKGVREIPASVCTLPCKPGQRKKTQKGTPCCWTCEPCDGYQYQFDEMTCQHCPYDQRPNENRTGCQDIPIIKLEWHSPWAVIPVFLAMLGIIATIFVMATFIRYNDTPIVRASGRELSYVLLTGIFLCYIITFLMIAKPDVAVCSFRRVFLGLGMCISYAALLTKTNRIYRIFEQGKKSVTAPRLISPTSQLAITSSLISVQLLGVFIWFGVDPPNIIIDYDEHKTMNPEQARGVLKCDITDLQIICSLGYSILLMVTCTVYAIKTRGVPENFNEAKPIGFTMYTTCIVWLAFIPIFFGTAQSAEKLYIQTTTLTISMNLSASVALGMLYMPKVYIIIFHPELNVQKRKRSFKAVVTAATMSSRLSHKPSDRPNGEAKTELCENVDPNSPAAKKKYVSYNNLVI
# experiment_notes: mGluR7 assay: CRE-directed luciferase reporter gene assay, reduction of forskolin stimulated cAMP production
# condition_parameters: stable CHO cell line expressing the CRE-luc reporter and human mGluR7 genes; decrease of forskolin stimulated luminescence; 10-point concentration-response, duplicate wells
# Method: The ability of the test compounds to activate mGluR7 was determined by their ability to reduce forskolin stimulated cAMP production. Compounds were assessed in a CRE-directed luciferase reporter gene assay, using a stable CHO cell line expressing the CRE-luc reporter and human mGluR7 genes. In this cell line, production of cAMP stimulated the transcription of the luciferase gene and luciferase activity was then measured in a luminescent enzyme assay (Steady Glo assay; Promega E2550). […]
measurement_kind: EC50
Mention the unit after the number when you answer.

Input: Supply recorded EC50 for CC(C)(C)OC(=O)N[C@H]1c2ccccc2C[C@@H]1NC(=O)C(c1ccc(F)cc1F)N1CCC1 (some centres unmarked) [Example 100] here.
Output: 27 nM

Input: Supply recorded EC50 for COC1c2ccccc2CC1NC(=O)C(c1ccc(F)cc1F)n1ncccc1=O (single isomer, unassigned) [Example 126] here.
Output: 280 nM

Input: Supply recorded EC50 for COC1c2ccccc2CC1NC(=O)[C@@H](C)c1ccc(F)cc1 (single isomer, unassigned) [Example 37] here.
Output: 38 nM

Input: Supply recorded EC50 for COC1c2ccccc2CC1NC(=O)[C@@H](NC(=O)C1CC1)c1ccc(F)cc1 (stereo in doubt) [Example 66] here.
Output: 4 nM

Input: Supply recorded EC50 for CO[C@H](C(=O)NC1Cc2ccccc2C1S(C)(=O)=O)c1ccccc1 (single isomer, unassigned) [Example 158] here.
Output: 56 nM

Input: Supply recorded EC50 for COC1c2ccccc2CC1NC(=O)[C@@H](C)c1ccc(F)cc1 (stereo in doubt) [Example 39] here.
Output: 633 nM

Input: Supply recorded EC50 for COC1c2ccccc2CC1NC(=O)[C@@H](C)c1ccccc1 (single isomer, unassigned) [Example 9] here.
Output: 37 nM

Input: Supply recorded EC50 for COC1c2ccccc2CC1NC(=O)[C@@H](C)c1ccc(F)cc1F (mixture of isomers) [Example 25] here.
Output: 24 nM

Input: Supply recorded EC50 for CS(=O)(=O)[C@@H]1c2ccccc2C[C@H]1NC(=O)C(OCC1CC1)c1ccc(F)cc1 (single isomer, unassigned) [Example 161] here.
Output: 2 nM

* * *

# tgt: human mGluR7 (Homo sapiens, UniProt Q14831)
# experiment_notes: mGluR7 assay: CRE-directed luciferase reporter gene assay, reduction of forskolin stimulated cAMP production
# condition_parameters: stable CHO cell line expressing the CRE-luc reporter and human mGluR7 genes; decrease of forskolin stimulated luminescence; 10-point concentration-response, duplicate wells
measurement_kind: log10(EC50) (log10 of the value in nM)
The common logarithm of EC50 in nM is what is listed.

Field: example entries. Status: answers known.
>  <compound>
CS(=O)(=O)C1c2ccccc2CC1NC(=O)C(OCC1CC1)c1ccccc1 (single isomer, unassigned) [Example 146]

>  <measured_result>
0.60

$$$$
>  <compound>
N[C@H]1c2ccccc2C[C@@H]1NC(=O)C(c1ccc(F)cc1)C1CC1 (stereo partly drawn) [Example 86]

>  <measured_result>
2.86

$$$$
>  <compound>
COC1c2ccccc2CC1NC(=O)[C@@H](C)c1ccc(F)cc1 (mixture of isomers) [Example 36]

>  <measured_result>
1.56

$$$$
>  <compound>
C[C@H](C(=O)N[C@H]1Cc2ccccc2[C@@H]1Nc1ncccn1)c1ccc(F)cc1F

>  <measured_result>
2.25

$$$$

Input: Supply recorded log10(EC50) for CS(=O)(=O)[C@@H]1c2ccccc2C[C@H]1NC(=O)C(OCC1CC1)c1ccc(F)cc1 (single isomer, unassigned) [Example 162] here.
Output: 0.30

Input: Supply recorded log10(EC50) for N[C@H]1c2ccccc2C[C@@H]1NC(=O)C(c1ccc(F)cc1F)N1CCC1 (stereo partly drawn) here.
Output: 2.28

Input: Supply recorded log10(EC50) for CC[C@H](C(=O)N[C@@H]1Cc2ccccc2[C@H]1N)c1ccc(F)cc1 here.
Output: 2.10

Input: Supply recorded log10(EC50) for N[C@H]1c2ccccc2C[C@@H]1NC(=O)C1(c2ccccc2)CCNC1 (stereo partly drawn) here.
Output: 3.52

Input: Supply recorded log10(EC50) for COC1c2ccccc2CC1NC(=O)[C@@H](NS(C)(=O)=O)c1ccc(F)cc1 (stereo in doubt) here.
Output: 1.04

* * *

# tgt: human mGluR7 (Homo sapiens, UniProt Q14831)
# experiment_notes: mGluR7 assay: CRE-directed luciferase reporter gene assay, reduction of forskolin stimulated cAMP production
# condition_parameters: stable CHO cell line expressing the CRE-luc reporter and human mGluR7 genes; decrease of forskolin stimulated luminescence; 10-point concentration-response, duplicate wells
Structures can show the parent of a compound that is named as a salt.
measurement_kind: EC50 (nM)
Just the number please, in nM, no unit attached.

Field: example entries. Status: answers known.
>  <compound>
C[C@H](C(=O)N[C@@H]1Cc2ccccc2[C@H]1NC(=O)OC(C)(C)C)c1ccccc1 [Example 18]

>  <tgt>
human mGluR7 (Homo sapiens, UniProt Q14831)

>  <EC50 (nM)>
150

$$$$
>  <compound>
COc1ccc(C(C)C(=O)N[C@H]2Cc3ccccc3[C@@H]2N)cc1 (stereo partly shown) [Example 57, hydrochloride]

>  <tgt>
human mGluR7 (Homo sapiens, UniProt Q14831)

>  <EC50 (nM)>
2210

$$$$
>  <compound>
COC1c2ccccc2CC1NC(=O)C(c1ccc(F)cc1)n1ncccc1=O (single isomer, unassigned) [Example 129]

>  <tgt>
human mGluR7 (Homo sapiens, UniProt Q14831)

>  <EC50 (nM)>
3900

$$$$

Let us examine a further case.
Input: Supply recorded EC50 for C[C@H](C(=O)N[C@H]1Cc2ccccc2[C@@H]1NC(=O)OC(C)(C)C)c1ccc(F)cc1F [Example 23] here.
Output: 18
